- System: InrS (Synechocystis PCC 6803)
- assay-text: fluorescence anisotropy
- condition-context: Cu(I), 1.2 molar excess, 10 nM labelled DNA, 10 mM HEPES pH 7.0, 60 mM NaCl, 240 mM KCl, 25 C, anaerobic, 5 mM EDTA for apo or 1.2x (InrS) / 2.2x (ZiaR) metal …
readout: pKd
Units for pKd: none; it is -log10 of a concentration expressed in mol/L.

GET /values?readout=pKd&system=InrS (Synechocystis PCC 6803)&item= TCATCAATATCCCCCCTGGGGGCATAGAATAGA (double strand) [nrsDProFA (nrsD operator-promoter)]
5.51

Source: paper PMC4235346
